Tgt: GST-VEGFR2 (Homo sapiens)
Construct: GST-VEGFR2, baculovirus expressed recombinant constructs of the intracellular domains of human TIE2 tagged by GST; made in house
Sequence (P35968 786-1356 limits assumed): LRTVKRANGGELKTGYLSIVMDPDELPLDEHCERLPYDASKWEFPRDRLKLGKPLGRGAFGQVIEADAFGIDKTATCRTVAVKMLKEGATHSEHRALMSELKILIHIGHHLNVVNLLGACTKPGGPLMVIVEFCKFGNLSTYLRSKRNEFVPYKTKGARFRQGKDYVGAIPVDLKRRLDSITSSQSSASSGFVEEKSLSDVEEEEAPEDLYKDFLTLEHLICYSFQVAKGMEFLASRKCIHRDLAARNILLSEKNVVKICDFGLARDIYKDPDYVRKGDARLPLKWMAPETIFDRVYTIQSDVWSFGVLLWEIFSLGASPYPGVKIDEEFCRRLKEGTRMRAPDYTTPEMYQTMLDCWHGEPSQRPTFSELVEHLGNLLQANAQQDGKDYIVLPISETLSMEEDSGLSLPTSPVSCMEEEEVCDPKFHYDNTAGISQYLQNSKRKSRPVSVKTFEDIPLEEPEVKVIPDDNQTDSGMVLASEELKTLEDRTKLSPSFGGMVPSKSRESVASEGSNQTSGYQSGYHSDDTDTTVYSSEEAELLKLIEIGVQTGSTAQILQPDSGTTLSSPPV
Protocol notes: VEGF-R2 Enzyme Assay (VEGF-E), LANCE method
Assay type: biochemical
Measurement parameters: GST-VEGFR2, 75 uM ATP; read-out: VEGF-E pIC50 (converted)
Exercise: for every item that follows, state its recorded IC50.

Quote IC50 reported for NC(=O)Nc1cccc(-c2oc3ncnc(N)c3c2-c2ccc(-c3ccccc3)cc2)c1 [Example 184] please.
< 100 nM

Check the records and state IC50 for CNS(=O)(=O)c1cccc(-c2oc3ncnc(N)c3c2-c2ccc(-c3ccccc3)cc2)c1 [Example 200]
< 100 nM

Quickly give me recorded IC50 for COc1ccc(-c2oc3ncnc(N)c3c2-c2ccc(-c3ccccc3)cc2)cc1 [Example 34]
1000 to 10000 nM

Assign IC50 to the following record: N#Cc1cccc(-c2oc3ncnc(N)c3c2-c2ccc(NC(=O)Nc3cc(C(F)(F)F)ccc3F)cc2)c1 [Example 8]
< 100 nM

Dear colleague, please send me the reported IC50 for CN(C)CCNC(=O)Nc1cccc(-c2oc3ncnc(N)c3c2-c2ccc(-c3ccccc3)cc2)c1 [Example 159] when you can.
100 to 1000 nM

Return IC50 for the following compound: NC(=O)Nc1ccc(-c2oc3ncnc(N)c3c2-c2ccc(-c3ccccc3)cc2)cc1 [Example 192]
< 100 nM

Return IC50 for the following compound: COc1ccc(-c2oc3ncnc(N)c3c2-c2ccc(SC)cc2)cc1 [Example 36]
100 to 1000 nM

Provide IC50 value for the following compound: COc1ccc(-c2oc3ncnc(N)c3c2-c2ccc(-c3ccccc3)cc2)cc1NS(C)(=O)=O [Example 189]
< 100 nM

Look up and report measured IC50 for this entry: NC(=O)c1cccc(-c2oc3ncnc(N)c3c2-c2ccc(-c3ccccc3)cc2)c1 [Example 131]
100 to 1000 nM

Please supply the value of reported IC50 for the item CS(=O)(=O)Nc1ccc(-c2oc3ncnc(N)c3c2-c2ccc(-c3ccccc3)cc2)cc1 [Example 191]
100 to 1000 nM

Specify reported IC50 for the compound shown: Nc1ncnc2occ(-c3ccc(NC(=O)Nc4cc(C(F)(F)F)ccc4F)cc3)c12 [232 (8C)]
< 100 nM

Look up and report measured IC50 for this entry: Nc1cccc(-c2oc3ncnc(N)c3c2-c2ccc(-c3ccccc3)cc2)c1 [Example 135]
< 100 nM

Note down IC50 recorded for Nc1ncnc2oc(-c3cccc(S(N)(=O)=O)c3)c(-c3ccc(-c4cccc(F)c4F)cc3)c12 [Example 5]
< 100 nM

Provide IC50 value for the following compound: NC(=O)c1cc(-c2oc3ncnc(N)c3c2-c2ccc(-c3ccccc3)cc2)ccc1F [Example 145]
< 100 nM

Fill in IC50 for record CC(=O)Nc1cccc(-c2oc3ncnc(N)c3c2-c2ccc(-c3ccccc3)cc2)c1 [Example 132]
100 to 1000 nM

Answer with reported IC50 of Nc1ncnc2oc(-c3cccc(S(N)(=O)=O)c3)c(-c3ccc(-c4ccccc4)cc3)c12 [Example 166]
< 100 nM

Please report the measured IC50 for COc1ccc(-c2oc3ncnc(N)c3c2-c2ccc(NC(=O)Nc3cc(C(F)(F)F)ccc3F)cc2)cc1 [Example 4]
< 100 nM

These measurements were taken from patent US7427623B2.
